Assay: Cytotoxicity against human HepG2(2.2.15) cells
Format: cell-based
Documented CC50 across a set of molecules

Example cases with answers are listed next.
QUERY: Entry under review: C[C@H](C[C@H](OC(=O)c1ccc(Cl)cc1)[C@@H](OC(=O)c1ccc(Cl)cc1)C(C)(C)OC(=O)c1ccc(Cl)cc1)C1=C2C[C@H](OC(=O)c3ccc(Cl)cc3)[C@H]3[C@@]4(C)CCC(=O)C(C)(C)[C@@H]4CC[C@]3(C)[C@@]2(C)CC1 . Reported CC50?
RESULT: > 1400 µM

QUERY: Given CC(=O)OC(C)(C)[C@H](OC(=O)C(C)C)[C@H](C[C@@H](C)C1=C2C[C@H](OC(=O)C(C)C)[C@H]3[C@@]4(C)CCC(=O)C(C)(C)[C@@H]4CC[C@]3(C)[C@@]2(C)CC1)OC(=O)C(C)C , state its recorded CC50.
RESULT: > 1900 µM

QUERY: May I ask what CC50 has been recorded for COCC(=O)OC(C)(C)[C@H](OC(C)=O)[C@H](C[C@@H](C)C1=C2C[C@H](OC(C)=O)[C@H]3[C@@]4(C)CCC(=O)C(C)(C)[C@@H]4CC[C@]3(C)[C@@]2(C)CC1)OC(C)=O ?
RESULT: 920 µM

Next molecule, please.
QUERY: Recorded CC50 of C[C@H](C[C@H](OC(=O)c1ccc(Cl)cc1Cl)[C@@H](OC(=O)c1ccc(Cl)cc1Cl)C(C)(C)OC(=O)c1ccc(Cl)cc1Cl)C1=C2C[C@H](OC(=O)c3ccc(Cl)cc3Cl)[C@H]3[C@@]4(C)CCC(=O)C(C)(C)[C@@H]4CC[C@]3(C)[C@@]2(C)CC1 , please.
RESULT: > 1000 µM
